read-out: Cytochrome P450 2B6 (Homo sapiens); assay: CLD_CYP2B6_6hr: CellzDirect (CLD) Gene Expression Assay for xenobiotic metabolism (CYP2B6) at 6 hours (AID 2283677);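 also: actives raise CYP2B6 transcript above DMSO baseline so AC50 marks an inducer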
Inconclusive results are not listed. The source made the active and inactive calls. The calls were made as follows: active = hit-call score of the fitted dose curve at least 0.9, where 1 is the maximum; inconclusive = response in the unintended direction; inactive = score below 0.9.
Lab note: assign the record to one of YES for active, NO for inactive

Completed entries (count: 2):
Inquiry: Per the records of this test, what outcome belongs to CCc1cccc(CC)c1N(COC)C(=O)CCl ?
Reply text: YES

Inquiry: Test call for this molecule, please: FC(F)C(F)(F)OCC(Cn1cncn1)c1ccc(Cl)cc1Cl (stereo not given)
Reply text: YES

Continuing:
Inquiry: # lookup: test call for CNC(=O)Oc1cccc2c1OC(C)(C)O2
Reply text: YES

Inquiry: Dear colleague, could you share the recorded outcome for CC(=NC#N)N(C)Cc1ccc(Cl)nc1 when you have a moment?
Reply text: NO

Inquiry: Outcome logged for CN(C)C(=O)Nc1cccc(C(F)(F)F)c1 in this assay:
Reply text: NO

Inquiry: Could you please tell me the result logged for CCOP(=S)(OCC)Oc1ccc2c(C)c(Cl)c(=O)oc2c1 in this assay?
Reply text: YES

Inquiry: Give the logged outcome of this assay for the following molecule: CCOP(=O)(NC(C)C)Oc1ccc(SC)c(C)c1 (stereo not given)
Reply text: YES

Inquiry: # fetch the recorded call for Cc1cc(C2CC2)nc(Nc2ccccc2)n1 here
Reply text: YES

Inquiry: Answer briefly: the call reported for CCc1cccc(C)c1N(C(=O)CCl)C(C)COC (stereo not given) in this assay.
Reply text: YES

Inquiry: // outcome(item) with item = CCNc1nc(Cl)nc(NC(C)(C)C#N)n1
Reply text: YES

###

experiment: Tanguay_ZF_120hpf_EYE_legacy: (Legacy) Oregon State University Tanguay Lab 120 Hour Post-fertilization zebrafish Assay for Eye Malformation (AID 2283636);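 also: binary presence or absence of eye malformation scored by brightfield in 120 hpf larvae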
Results filed as inconclusive are left out. Calls of active or inactive are those of the source. Rule for the calls: active = hit-call score of the fitted dose curve at least 0.9, where 1 is the maximum; inconclusive = response in the unintended direction; inactive = score below 0.9.
readout-name: AC50

Input CNC(=O)ON=C(SC)C(=O)N(C)C . Output AC50: inactive

Reported AC50 for COP(=O)(OC)SCn1c(=O)oc2cc(Cl)cnc21 was 15.3 µM (active)

// sample CCC(CC)Nc1c([N+](=O)[O-])cc(C)c(C)c1[N+](=O)[O-] , its AC50 was inactive

Lab note: CCc1cccc(C)c1N(C(=O)CCl)C(C)COC (configuration not stated) gave AC50 of inactive

Looking up S=C1NCCN1 , I found its AC50 recorded as inactive

Next:
For reference, reported AC50 for CCOP(=S)(OCC)Oc1ccc([N+](=O)[O-])cc1 stands at inactive

AC50 recorded for this compound, CCOP(=O)(OCC)Oc1cc(C)nc(C(C)C)n1 , is inactive

###

biological target: Oxysterols receptor LXR-alpha (Homo sapiens) (UniProt Q13133); experiment: ATG_LXRa_TRANS: Attagene TRANS-FACTORIAL HepG2 Assay for human Liver X Receptor alpha (LXRa) (AID 2282980); details: HepG2 Attagene TRANS reporter, LXRa transactivation
Sequence (Q13133 whole entry, looked up): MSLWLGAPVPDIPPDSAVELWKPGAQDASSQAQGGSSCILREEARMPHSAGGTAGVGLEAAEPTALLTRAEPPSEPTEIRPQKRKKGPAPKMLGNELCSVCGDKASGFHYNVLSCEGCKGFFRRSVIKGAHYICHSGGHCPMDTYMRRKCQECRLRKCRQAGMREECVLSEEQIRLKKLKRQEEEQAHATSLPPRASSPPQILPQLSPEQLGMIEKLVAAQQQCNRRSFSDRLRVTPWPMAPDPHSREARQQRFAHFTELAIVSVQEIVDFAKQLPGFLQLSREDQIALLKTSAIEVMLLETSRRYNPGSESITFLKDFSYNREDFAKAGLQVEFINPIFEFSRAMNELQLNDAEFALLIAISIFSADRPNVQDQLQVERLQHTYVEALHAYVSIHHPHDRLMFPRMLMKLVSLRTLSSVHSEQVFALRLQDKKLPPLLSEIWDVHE
Results filed as inconclusive are left out. Calls of active or inactive are those of the source. How the source made its calls: active means hit-call score of the fitted dose curve at least 0.9, where 1 is the maximum; inconclusive means response in the unintended direction; inactive means score below 0.9.
Result category, one only: t = active, f = inactive

For orientation, consider the following solved cases.
Inquiry: Record lookup: outcome of this test for CCc1cnc(C2=NC(C)(C(C)C)C(=O)N2)c(C(=O)O)c1 (stereo not drawn) ?
Reply text: f

Inquiry: Outcome logged for S=C1NCCN1 in this assay:
Reply text: f

Inquiry: Please indicate how the test categorized CCCCOC(=O)c1ccccc1C(=O)O .
Reply text: f

Inquiry: What was the test verdict on CC1(C(=O)Nc2ccc(O)c(Cl)c2Cl)CCCCC1 ?
Reply text: t

Others:
Inquiry: Assay outcome for CNC(=O)ON=C(C)SC : what was it?
Reply text: f

Inquiry: Each compound tested received a call. Report the one for COc1ccc(C(=CC(=O)N2CCOCC2)c2ccc(Cl)cc2)cc1OC .
Reply text: f

Inquiry: How was CCCSP(=O)(OCC)SCCC classified in this test?
Reply text: f

Inquiry: Assay outcome for CCOP(=S)(OCC)Oc1ccc2c(C)c(Cl)c(=O)oc2c1 : what was it?
Reply text: f

Inquiry: For N#CSCSC#N , which call appears in the assay record?
Reply text: f

Inquiry: Hi, do you know how COP(=O)(NC(C)=O)SC (stereo not drawn) came out in this test?
Reply text: f

Inquiry: Fill in: this test's call for CSC1=N[C@@](C)(c2ccccc2)C(=O)N1Nc1ccccc1 is ___
Reply text: f

Inquiry: // param item: CN(C)[C@@H]1C(=O)C(C(N)=O)=C(O)[C@@]2(O)C(=O)C3=C(O)c4c(O)cccc4[C@@](C)(O)[C@H]3[C@H](O)[C@@H]12 ; yields the recorded call
Reply text: f

Inquiry: State the result this test recorded for CCCCOC(=O)[C@@H](C)Oc1ccc(Oc2ccc(C#N)cc2F)cc1 .
Reply text: f

Inquiry: Fill in: this test's call for Nc1nc(N)nc(NC2CC2)n1 is ___
Reply text: f

Inquiry: Please share the test call associated with Cc1nn(-c2cc(NS(C)(=O)=O)c(Cl)cc2Cl)c(=O)n1C(F)F .
Reply text: f

Inquiry: # lookup: test call for Nc1c(Cl)cc([N+](=O)[O-])cc1Cl
Reply text: f
